biological target: Recombinant human CD33 protein (Homo sapiens (Human)); assay: CD33 competitive binding assay for HTS drug screen (fluorescent multivalent sialic acid probe)
Sequence (P20138 18-259): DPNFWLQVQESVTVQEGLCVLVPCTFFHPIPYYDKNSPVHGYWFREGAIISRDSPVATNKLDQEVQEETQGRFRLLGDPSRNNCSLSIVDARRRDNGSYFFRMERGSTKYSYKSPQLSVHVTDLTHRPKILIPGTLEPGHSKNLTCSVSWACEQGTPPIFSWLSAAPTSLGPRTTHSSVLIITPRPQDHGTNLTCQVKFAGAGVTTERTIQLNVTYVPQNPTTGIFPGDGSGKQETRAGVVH
pEC50: −log10 of the molar value.
quantityKind: pEC50

compound	pEC50
Cc1cc(C(=O)NC[C@@H](O)[C@@H](O)[C@@H]2O[C@@](OC3CCCCC3NC(=O)CN(C)C(=O)OCc3ccccc3)(C(=O)O)C[C@H](O)[C@H]2NC(=O)Cn2cc(C3CCCCC3)nn2)cc(C)c1O (stereo partly drawn)	4.88
CC(=O)N[C@H]1[C@H]([C@H](O)[C@H](O)CNC(=O)c2cc(C)c(O)c(C)c2)O[C@@](CC2OC(C)(C)O[C@H]2c2cccc(C(=O)NCc3ccccc3)c2)(C(=O)O)C[C@@H]1O (stereo partly drawn)	5.20
CC(=O)N[C@H]1[C@H]([C@H](O)[C@H](O)CNC(=O)c2cc(C)c(O)c(C)c2)O[C@@](C/C=C/C2CCN(c3cc(N(C)C)ccn3)C2)(C(=O)O)C[C@@H]1O (stereo partly drawn)	5.01
CC(=O)N[C@H]1[C@H]([C@H](O)[C@H](O)CNC(=O)c2cc(C)c(O)c(C)c2)O[C@@](CC2OC(C)(C)O[C@H]2c2cc(N3CCCC3=O)ccc2C)(C(=O)O)C[C@@H]1O (stereo partly drawn)	6.89

(a) Cc1cc(C(=O)NC[C@@H](O)[C@@H](O)[C@@H]2O[C@@](C/C=C/c3cccc(CNC(=O)C4CCCC4)c3)(C(=O)O)C[C@H](O)[C@H]2NC(=O)Cn2cc(C3CCCCC3)nn2)cc(C)c1O
(b) CC(=O)N[C@H]1[C@H]([C@H](O)[C@H](O)CNC(=O)c2ccc(=O)n(C)c2)O[C@@](CCN2CCOC[C@@]23CCN(C(=O)OC(C)(C)C)C3)(C(=O)O)C[C@@H]1O
// query Form: Entry with minimum pEC50 (choose one): a / b // return label of chosen record
// result a
(a: 5.20, b: 5.41)

---

Biological target: Recombinant human CD33 protein (Homo sapiens (Human))
Assay: CD33 competitive binding assay for HTS drug screen (fluorescent multivalent sialic acid probe)
Description: This is a competitive binding assay that uses recombinant CD33 immobilized to a plate and a fluorescently-labeled multivalent sialic acid analog as a probe. Binding of drug to the site on CD33 to which sialic acid binds is detected by reduced binding of the fluorescent probe. […] Bound complex was then detected using a standard plate reader to quantify FITC fluorescence.
pEC50: −log10 of the molar value.
quantityKind: pEC50

Known results for compounds:
compound	targetSystem	numericReadout
CC(=O)N[C@H]1[C@H]([C@H](O)[C@H](O)CNC(=O)c2cc(C)c(O)c(C)c2)O[C@@](C[C@H]2COC[C@@]3(CCN(C(=O)NC(C)(C)C)C3)N2)(C(=O)O)C[C@@H]1O	Recombinant human CD33 protein (Homo sapiens (Human))	7.85
CC(=O)N[C@H]1[C@H]([C@H](O)[C@H](O)CNC(=O)c2cc(C)c(O)c(C)c2)O[C@@](CCN2CCOC[C@@]23CCN(C(=O)OC(C)(C)C)C3)(C(=O)O)C[C@]1(C)O	Recombinant human CD33 protein (Homo sapiens (Human))	6.88
CC(=O)N[C@H]1[C@H]([C@H](O)[C@H](O)CNC(=O)c2ccc(-c3ncn[nH]3)cc2)O[C@@](CCN2CCOC[C@@]23CCN(C(=O)OC(C)(C)C)C3)(C(=O)O)C[C@@H]1O	Recombinant human CD33 protein (Homo sapiens (Human))	6.47
CC(=O)N[C@H]1[C@H]([C@H](O)[C@H](O)CNC(=O)c2cn(C)nc2C)O[C@@](CCN2CCOC[C@@]23CCN(C(=O)OC(C)(C)C)C3)(C(=O)O)C[C@@H]1O	Recombinant human CD33 protein (Homo sapiens (Human))	6.36
CC(=O)N[C@H]1[C@H]([C@H](O)[C@H](O)CNC(=O)c2cc(C)c(O)c(C)c2)O[C@@](CCN2CCOC[C@@]23CCN(C(=O)C2(C)CCCO2)C3)(C(=O)O)C[C@@H]1O (stereo partly shown)	Recombinant human CD33 protein (Homo sapiens (Human))	6.55

(1) CC(=O)N[C@H]1[C@H]([C@H](O)[C@H](O)CNC(=O)c2cc(C)c(O)c(C)c2)O[C@@](C/C=C/c2cccc(CNC(=O)c3ccc(Nc4ncccn4)cc3)c2)(C(=O)O)C[C@@H]1O
(2) CC(=O)N1CCC(C(=O)NCc2cccc(/C=C/C[C@]3(C(=O)O)C[C@H](O)[C@@H](NC(=O)Cn4cc(C5CCCCC5)nn4)[C@H]([C@H](O)[C@H](O)CNC(=O)c4cc(C)c(O)c(C)c4)O3)c2)CC1
(3) CC(=O)N[C@H]1[C@H]([C@H](O)[C@H](O)CNC(=O)c2cc(C)c3[nH]ccc3c2)O[C@@](CCN2CCOC[C@@]23CCN(C(=O)OC(C)(C)C)C3)(C(=O)O)C[C@@H]1O
(4) COC(=O)[C@@]1(CCN2CCOC[C@@]23CCN(C(=O)OC(C)(C)C)C3)CCC[C@H](C[C@H](O)CNC(=O)c2cc(C)c3[nH]ccc3c2)O1 [A-207]
(5) CC(=O)N[C@H]1[C@H]([C@H](O)[C@H](O)CNC(=O)c2cc(C)c(O)c(C)c2)O[C@@](C/C=C/c2cc(CNC(=O)C3CCCOC3)ccc2C)(C(=O)O)C[C@@H]1O (stereo partly shown) [A-290]
// query Arrange items by their pEC50 values in increasing order. Could you list the labels in the order requested?
// result 5, 4, 2, 1, 3
